Study Target: HLA-A*02:01
Assay Name: IEDB peptide-MHC binding, purified MHC/direct/fluorescence; filed as Kd, often an IC50 or EC50 that approximates it; bounds were set here for any values at or beyond the usual limits of such assays
Condition Set: source organism: Aggregatibacter actinomycetemcomitans
Quantity Name: Kd

Identify measured Kd associated with `TTRAWFDKK`
≥ 20 µM

###

Study Target: HLA-A*03:01
Assay Name: IEDB peptide-MHC binding, purified MHC/competitive/fluorescence; filed as Kd, often an IC50 or EC50 that approximates it; bounds were set here for any values at or beyond the usual limits of such assays
Condition Set: source organism: Trichodesmium erythraeum IMS101
Quantity Name: Kd (nM)
Your answer is read as nM, so omit the unit and give the number.

Identify measured Kd associated with `RVDEIILFH`
73

###

Study Target: HLA-A*02:03
Assay Name: IEDB peptide-MHC binding, purified MHC/competitive/radioactivity; filed as Kd, often an IC50 or EC50 that approximates it; bounds were set here for any values at or beyond the usual limits of such assays
Condition Set: source organism: Dengue virus 2 Jamaica/1409/1983
The following sequences are shown together with reported pKd values.
Remember the convention: pKd equals -log10 of concentration in molar.

| Seq String | Data Value |
| --- | --- |
| ALGMMVLKIV | 7.25 |
| ILAAVSVSPL | 7.89 |

Shift focus to the following entry.
Lab note: record pKd of `KVSCTILAAV` tested on HLA-A*02:03.
7.26

###

Study Target: HLA-B*15:01
Assay Name: IEDB peptide-MHC binding, purified MHC/direct/fluorescence; filed as Kd, often an IC50 or EC50 that approximates it; bounds were set here for any values at or beyond the usual limits of such assays
Condition Set: source organism: Burkholderia mallei
Quantity Name: Kd (nM)
Your answer is read as nM, so omit the unit and give the number.

Lab note: record Kd of `MMYASWGVH` tested on HLA-B*15:01.
8.2

###

Study Target: HLA-B*35:01
Assay Name: IEDB peptide-MHC binding, purified MHC/competitive/radioactivity; filed as Kd, often an IC50 or EC50 that approximates it; bounds were set here for any values at or beyond the usual limits of such assays
Condition Set: source organism: Lymphocytic choriomeningitis virus (strain Armstrong)
Quantity Name: pKd
Remember the convention: pKd equals -log10 of concentration in molar.

Identify measured pKd associated with `MPSEDGAEAL`
7.17

###

Study Target: HLA-B*58:01
Assay Name: IEDB peptide-MHC binding, purified MHC/direct/fluorescence; filed as Kd, often an IC50 or EC50 that approximates it; bounds were set here for any values at or beyond the usual limits of such assays
Condition Set: source organism: Vibrio cholerae
pKd: −log10 of the molar value.
The following sequences are shown together with reported pKd values.

Would you please look over these solved cases?
| Seq String | pKd |
| --- | --- |
| ALYWALMES | ≤ 4.70 |
| WAGIWGGKL | ≤ 4.70 |

Shift focus to the following entry.
Lab note: record pKd of `VVYKEAKIK` tested on HLA-B*58:01.
≤ 4.70

###

Study Target: HLA-A*02:01
Assay Name: IEDB peptide-MHC binding, purified MHC/competitive/fluorescence; filed as Kd, often an IC50 or EC50 that approximates it; bounds were set here for any values at or beyond the usual limits of such assays
Condition Set: source organism: Homo sapiens
Quantity Name: Kd

Identify measured Kd associated with `VSDFRKEFY`
≥ 20 µM

###

Study Target: HLA-A*23:01
Assay Name: IEDB peptide-MHC binding, purified MHC/competitive/fluorescence; filed as Kd, often an IC50 or EC50 that approximates it; bounds were set here for any values at or beyond the usual limits of such assays
Condition Set: source organism: Rickettsia typhi str. Wilmington
Quantity Name: Kd

Identify measured Kd associated with `QLEVRSTEV`
≥ 20 µM

###

Study Target: HLA-B*15:01
Assay Name: IEDB peptide-MHC binding, purified MHC/direct/fluorescence; filed as Kd, often an IC50 or EC50 that approximates it; bounds were set here for any values at or beyond the usual limits of such assays
Condition Set: source organism: Salmonella enterica
Quantity Name: Kd

Identify measured Kd associated with `AHSKAETEA`
≥ 20 µM

###

Study Target: HLA-A*11:01
Assay Name: IEDB peptide-MHC binding, purified MHC/competitive/radioactivity; filed as Kd, often an IC50 or EC50 that approximates it; bounds were set here for any values at or beyond the usual limits of such assays
Condition Set: source organism: Mammarenavirus guanaritoense
Quantity Name: pKd
Remember the convention: pKd equals -log10 of concentration in molar.

Identify measured pKd associated with `CCNWLDRCR`
4.74

###

Study Target: HLA-A*02:01
Assay Name: IEDB peptide-MHC binding, purified MHC/direct/fluorescence; filed as Kd, often an IC50 or EC50 that approximates it; bounds were set here for any values at or beyond the usual limits of such assays
Condition Set: source organism: Brucella abortus
Quantity Name: pKd
Remember the convention: pKd equals -log10 of concentration in molar.

Identify measured pKd associated with `LSDDSGLMV`
5.98

###

Study Target: HLA-A*29:02
Assay Name: IEDB peptide-MHC binding, purified MHC/competitive/radioactivity; filed as Kd, often an IC50 or EC50 that approximates it; bounds were set here for any values at or beyond the usual limits of such assays
Condition Set: source organism: Lymphocytic choriomeningitis virus (strain WE)
Quantity Name: pKd
Remember the convention: pKd equals -log10 of concentration in molar.

Identify measured pKd associated with `LTDNDDILM`
5.04

###

Study Target: HLA-A*02:01
Assay Name: IEDB peptide-MHC binding, purified MHC/competitive/fluorescence; bounds were set here for any values at or beyond the usual limits of such assays
Condition Set: source organism: Zaire ebolavirus
Quantity Name: IC50

Would you please look over these solved cases?
| Seq String | IC50 |
| --- | --- |
| GLDDQEKKI | 41.2 µM |
| RSEELSFTV | 2.38 µM |
| KVNPEIDTT | ≥ 120 µM |
| FVTLDGQQF | ≥ 121 µM |
| FSGLLIVKT | ≥ 370 µM |

Identify measured IC50 associated with `IQNVPGPHR`
≥ 119 µM

Identify measured IC50 associated with `LICGLRQLA`
0.995 µM

Identify measured IC50 associated with `QDQDHTQEA`
≥ 321 µM

Identify measured IC50 associated with `TTGKLIWKV`
1.24 µM

Identify measured IC50 associated with `AENTNTSKS`
≥ 187 µM

###

Study Target: HLA-B*15:01
Assay Name: IEDB peptide-MHC binding, purified MHC/competitive/fluorescence; filed as Kd, often an IC50 or EC50 that approximates it; bounds were set here for any values at or beyond the usual limits of such assays
Condition Set: source organism: Campylobacter jejuni subsp. jejuni NCTC 11168 = ATCC 700819
pKd: −log10 of the molar value.
Quantity Name: pKd

Lab note: record pKd of `KGMKIQHFK` tested on HLA-B*15:01.
≤ 4.70

###

Study Target: HLA-A*01:01
Assay Name: IEDB peptide-MHC binding, purified MHC/competitive/fluorescence; bounds were set here for any values at or beyond the usual limits of such assays
Condition Set: source organism: Zaire ebolavirus
Quantity Name: pIC50
Remember the convention: pIC50 equals -log10 of concentration in molar.

Identify measured pIC50 associated with `SLPKTSGHY`
4.42

###

The following sequences are shown together with reported pKd values.
Study Target: HLA-A*11:01
Assay Name: IEDB peptide-MHC binding, purified MHC/competitive/radioactivity; filed as Kd, often an IC50 or EC50 that approximates it; bounds were set here for any values at or beyond the usual limits of such assays
Condition Set: source organism: Lymphocytic choriomeningitis virus (strain Armstrong)
Remember the convention: pKd equals -log10 of concentration in molar.

| Seq String | pKd |
| --- | --- |
| VCLALTNSMK | 6.20 |

Lab note: record pKd of `SCQGSDDIRK` tested on HLA-A*11:01.
4.74

###

Study Target: HLA-A*03:01
Assay Name: IEDB peptide-MHC binding, purified MHC/direct/fluorescence; filed as Kd, often an IC50 or EC50 that approximates it; bounds were set here for any values at or beyond the usual limits of such assays
Condition Set: source organism: Encephalitozoon cuniculi GB-M1
Quantity Name: Kd

Lab note: record Kd of `MPFDPSELV` tested on HLA-A*03:01.
≥ 20 µM

###

Study Target: HLA-B*46:01
Assay Name: IEDB peptide-MHC binding, purified MHC/direct/fluorescence; filed as Kd, often an IC50 or EC50 that approximates it; bounds were set here for any values at or beyond the usual limits of such assays
Condition Set: source organism: Campylobacter jejuni RM1221
Quantity Name: Kd

Identify measured Kd associated with `VQKVNPAPK`
≥ 20 µM

###

Study Target: HLA-A*01:01
Assay Name: IEDB peptide-MHC binding, purified MHC/competitive/radioactivity; filed as Kd, often an IC50 or EC50 that approximates it; bounds were set here for any values at or beyond the usual limits of such assays
Condition Set: source organism: Dengue virus 2 Jamaica/1409/1983
Quantity Name: pKd
Remember the convention: pKd equals -log10 of concentration in molar.

Would you please look over these solved cases?
| Seq String | Quantity Name | Data Value |
| --- | --- | --- |
| TVIDLDPIPY | pKd | 5.81 |
| LIGNEEYTDY | pKd | 5.97 |
| LSRKTFDSEY | pKd | 5.74 |

Shift focus to the following entry.
Identify measured pKd associated with `MTDDIGMGVT`
5.95

Just for reference, the Immune Epitope Database (IEDB) is where these values come from.
